tested on: SNB-75; assay: Cytotoxicity against Homo sapiens (human) SNB75 cells after 48 hr by SRB assay; type: functional; conditions: SNB-75, 48 h
assay.readout: LC50

Need LC50, item O=C(CSc1nc2ccccc2c2nc(=O)c(-c3ccccc3)nn12)NCc1ccccc1 43.7 µM

Moving on to COc1ccc(-c2nn3c(SCC(=O)Nc4ccccc4Cl)nc4ccccc4c3nc2=O)cc1 25.1 µM

Moving on to COc1ccccc1CNC(=O)CSc1nc2ccccc2c2nc(=O)c(-c3ccccc3)nn12 43.7 µM

Lab note: next compound to report on.
Need LC50, item O=C(CSc1nc2ccccc2c2nc(=O)c(-c3ccccc3)nn12)NCc1ccccc1F > 100 µM

====

system: OVCAR-3; test: Cytotoxicity against Homo sapiens (human) OVCAR3 cells assessed as cell growth at 10 uM after 48 hr by SRB assay relative to control; type: functional; conditions: OVCAR-3, 48 h, read-out: Activity
Measured growth at 10 µM of individual entries
Quick reminder: number only, in %, skip the unit.

Study these solved cases before continuing.
Need growth at 10 µM, item O=C(CSc1nc2ccccc2c2nc(=O)c(-c3ccccc3)nn12)NCc1ccccc1Cl 47.9

Moving on to COc1ccccc1CNC(=O)CSc1nc2ccccc2c2nc(=O)c(-c3ccccc3)nn12 21.3

Moving on to O=C(CSc1nc2ccccc2c2nc(=O)c(-c3ccccc3)nn12)NCc1ccccc1 13.7

Moving on to COc1ccc(-c2nn3c(SCC(=O)Nc4ccccc4Cl)nc4ccccc4c3nc2=O)cc1 7.18

More entries:
Need growth at 10 µM, item O=C(CSc1nc2ccccc2c2nc(=O)c(-c3ccccc3)nn12)NCc1ccccc1F 9.5

====

tested on: Photobacterium leiognathi; assay: Growth inhibition of Photobacterium leiognathi Sh1 assessed as bio-luminescence at 0.25 mg/ml after 10 min by acute action test relative to control; format: functional; design: scale not given: the % may be the effect or the level left
assay.readout: Activity (%)
Quick reminder: number only, in %, skip the unit.

Provide the documented Activity with Photobacterium leiognathi as the system for Cc1nn2c(SCC(=O)NCc3cccc(C(F)(F)F)c3)nc3ccccc3c2nc1=O 100

More entries:
Provide the documented Activity with Photobacterium leiognathi as the system for O=C(CSc1nc2ccccc2c2nc(=O)c(-c3ccccc3)nn12)Nc1cccc(F)c1 96.36

====

tested on: Photobacterium leiognathi; assay: Growth inhibition of Photobacterium leiognathi Sh1 assessed as bio-luminescence at 0.25 mg/ml after 10 min by acute action test relative to control; format: functional; design: scale not given: the % may be the effect or the level left
Label Condition met when Activity < 90%; otherwise Condition not met.

Hello, is Activity of the following compound strictly smaller than 90%? CN(C)[C@@H]1C(O)=C(C(N)=O)C(=O)[C@@]2(O)C(O)=C3C(=O)c4c(O)cccc4[C@@](C)(O)[C@H]3C[C@@H]12 Condition met

Moving on to Cc1nn2c(SCC(=O)NCc3ccccc3Cl)nc3ccccc3c2nc1=O Condition not met

Moving on to O=C(CSc1nc2ccccc2c2nc(=O)c(-c3ccccc3)nn12)NCc1ccccc1Cl Condition not met

More entries:
Hello, is Activity of the following compound strictly smaller than 90%? O=C(CSc1nc2ccccc2c2nc(=O)c(-c3ccccc3)nn12)Nc1ccccc1 Condition met

Moving on to Cc1ccc(-c2nn3c(SCC(=O)Nc4ccc(F)cc4)nc4ccccc4c3nc2=O)cc1 Condition met

Moving on to COc1ccccc1CNC(=O)CSc1nc2ccccc2c2nc(=O)c(C)nn12 Condition not met
